Hello, the source for this data is patent US20080220499A1, in case you need it.

- System: protease isolated from Pseudomonas aeruginosa MCM B-327
- protocol.notes: Effect of metal ions on protease activity
- Format: biochemical
- setup.conditions: metal ion at 5 mM; Tris-HCl pH 8.0, 37° C.; None = 42.77
Binary call on Enzyme activity: True from 40 U/mg precipitate upward, False beneath that.

# molecule, target.or.test.system, class
data = [
    ("O=S(=O)([O-])[O-].[Mg+2]", "protease isolated from Pseudomonas aeruginosa MCM B-327", "True"),
    ("O=S(=O)([O-])[O-].[Cu+2]", "protease isolated from Pseudomonas aeruginosa MCM B-327", "False"),
    ("[Ca+2].[Cl-].[Cl-]", "protease isolated from Pseudomonas aeruginosa MCM B-327", "True"),
    ("O=S(=O)([O-])[O-].[Fe+2]", "protease isolated from Pseudomonas aeruginosa MCM B-327", "False"),
    ("[Cl][Hg][Cl]", "protease isolated from Pseudomonas aeruginosa MCM B-327", "False"),
    ("O=S(=O)([O-])[O-].[Zn+2]", "protease isolated from Pseudomonas aeruginosa MCM B-327", "False"),
]

Now consider the entry below.
query: Given the entry O=S(=O)([O-])[O-].[Mn+2] , answer whether its Enzyme activity meets or surpasses 40 U/mg precipitate.
result: False

###

- Test system: protease isolated from Pseudomonas aeruginosa MCM B-327
- protocol.notes: Effect of organic solvents on protease activity
- Type: biochemical
- setup.conditions: organic solvent 50% v/v, 30 min of incubation; Tris-HCl pH 8.0, 37° C.; None = 42.77
quantity.kind: Enzyme activity (U/mg precipitate)
Give bare numbers, in U/mg precipitate.

# molecule, reported.measurement
rows = [
    ("CC(C)=O", 13.68),
    ("CCO", 3.84),
    ("CO", 14.11),
]

Would you mind listing Enzyme activity for each of the following compounds?
1. c1ccccc1
2. CC(C)CC(C)(C)C
3. CCCCC=O
4. Cc1ccccc1
5. CCCCCC

result:
[11.54, 28.65, 11.54, 20.95, 26.94]

###

Please go through the items and note down their Enzyme activity.
- System: protease isolated from Pseudomonas aeruginosa MCM B-327
- protocol.notes: Effect of inhibitors on protease activity
- Format: biochemical
- setup.conditions: inhibitor 5 mM, incubated 30 min; None = 42.77
Numbers only, in U/mg precipitate.

// worked examples, Enzyme activity included
# compound, quantity.kind, reported.measurement
rows = [
    ("O[C@@H](CS)[C@@H](O)CS", "Enzyme activity", 0),
    ("NC(=O)CI [Iodoacetamide]", "Enzyme activity", 43.62),
    ("O=C(O)CN(CCN(CC(=O)O)CC(=O)O)CC(=O)O", "Enzyme activity", 30.36),
]

query: Requested field: Enzyme activity. Item: O=S(=O)(F)Cc1ccccc1 [PMSF, Phenyl methyl sulphonyl fluoride]
result: 31.65
